Reference source for all entries: paper PMC7582667

System: MCF7 (human breast adenocarcinoma) cell lines
Assay: MTT cytotoxicity assay, MCF7
Assay type: cell-based
Conditions: MCF7 cells, triplicates
experimental_endpoint: IC50 (µM)
Number only, in µM; omit the unit.

>>> value_reported("O=C1Nc2ccccc2C1=NN=Cc1ccccc1Br")
5.46
>>> value_reported("COc1cccc2c1C(=O)c1c(O)c3c(c(O)c1C2=O)C[C@@](O)(C(=O)CO)C[C@@H]3O[C@H]1C[C@H](N)[C@H](O)[C@H](C)O1 [Doxorubicin, reference compound]")
3.1
>>> value_reported("CSc1ccc(C=NN=C2C(=O)Nc3ccccc32)cc1")
24
>>> value_reported("COc1ccc(C=NN=C2C(=O)Nc3ccccc32)c(O)c1")
7.77
>>> value_reported("Cc1ccccc1C=NN=C1C(=O)Nc2ccccc21")
10.8
>>> value_reported("O=C1Nc2ccccc2C1=NN=Cc1c(Cl)cccc1Cl")
1.51
>>> value_reported("COc1cc(C)c(C=NN=C2C(=O)Nc3ccccc32)c(C)c1")
25.8
>>> value_reported("O=C1Nc2ccccc2C1=NN=Cc1ccc(Br)cc1")
15.7

Next, consider the following compound.
The compound identified as Cc1cccc(C=NN=C2C(=O)Nc3ccccc32)c1 registered its IC50 at 14.7

====

melting point values, listed per item

Worked cases, answers included:
>>> value_reported("O=C1Nc2ccccc2C1=NN=Cc1ccc(Br)cc1")
"267 to 268 °C"
>>> value_reported("O=C1Nc2ccccc2C1=NN=Cc1c(Cl)cccc1Cl")
"286 to 287 °C"
>>> value_reported("CSc1ccc(C=NN=C2C(=O)Nc3ccccc32)cc1")
"204 to 205 °C"

Consider now this further molecule.
Value of melting point reported for the molecule Cc1ccccc1C=NN=C1C(=O)Nc2ccccc21 is 198 to 199 °C
